B1: TRAF3IP2 (parent)
chain: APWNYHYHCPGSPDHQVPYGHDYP

- Variants of: B1
- experiment-notes: protein stability index of a GFP-peptide fusion (GPS, HEK-293T) (PSI 1-6); higher = more stable;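 note: lentivirally expressed fusions sorted by FACS into six bins by GFP to DsRed ratio, PSI derived from sequencing read proportions per bin multiplied by bin number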
- condition-context: c terminus: a fixed tail appended
Classification field: met = protein stability index at or over 2; not met = protein stability index under 2.

Could you verify whether the entry "H21Q" shows protein stability index of no less than 2?
met

Could you verify whether the entry "Y7G" shows protein stability index of no less than 2?
met

Could you verify whether the entry "A1M" shows protein stability index of no less than 2?
met

Could you verify whether the entry "H15W" shows protein stability index of no less than 2?
not met

Could you verify whether the entry "H6A" shows protein stability index of no less than 2?
met

Could you verify whether the entry "S12V" shows protein stability index of no less than 2?
met

Could you verify whether the entry "D22L" shows protein stability index of no less than 2?
not met

Could you verify whether the entry "P2W" shows protein stability index of no less than 2?
not met

Could you verify whether the entry "P24Q" shows protein stability index of no less than 2?
met

Could you verify whether the entry "G11P" shows protein stability index of no less than 2?
not met

Could you verify whether the entry "P10N" shows protein stability index of no less than 2?
met

Could you verify whether the entry "W3Y" shows protein stability index of no less than 2?
met

Could you verify whether the entry "G11V" shows protein stability index of no less than 2?
met

Could you verify whether the entry "C9Y" shows protein stability index of no less than 2?
met

Could you verify whether the entry "P2D" shows protein stability index of no less than 2?
met

Could you verify whether the entry "S12T" shows protein stability index of no less than 2?
met

Could you verify whether the entry "P24R" shows protein stability index of no less than 2?
met

Could you verify whether the entry "P24Y" shows protein stability index of no less than 2?
not met

Could you verify whether the entry "V17H" shows protein stability index of no less than 2?
met

Could you verify whether the entry "S12A" shows protein stability index of no less than 2?
met
